FYI, the data here is from PubChem BioAssay (NCI).

System: DU-145 prostate
Experiment: NCI tumour cell line growth inhibition, 48 h

| compound | TGI |
| --- | --- |
| C#CC[C@@H]1C(=O)N(Cc2ccc(OC)cc2)[C@@H](C(C)C)C(=O)N1Cc1ccc(OC)cc1 | > 100 µM |
| CC(C)(C)c1cc(C(=O)Nc2ccccc2C(=O)NCCN)cc(C(C)(C)C)c1 | 3.4 µM |
| COc1cccc(/C=C/C(=O)c2ccc3cc(OC)ccc3c2)c1 | 17.5 µM |
| CC(C)C1CNC(=O)C2(C=NC(C(C)C)CNC(=O)C3(C=N1)CCCO3)CCCO2 (stereo not given) | > 10 µM |
| NS(=O)(=O)c1ccc(Nc2cc(-c3ccc(O)c(F)c3)[nH]n2)cc1 | > 25 µM |
| CC(=O)CCCCn1c(=O)c2c(nc(Br)n2C)n(C)c1=O | > 100 µM |
| C1CNOCCCONCCCNOCCCONC1 | > 100 µM |
| Oc1ccc(Br)cc1C=Nc1cccc(C(F)(F)F)c1 | > 100 µM |
| CC1(C)C2CCC3CC(CCC#N)CCC3C21C#N (stereo not given) | > 100 µM |
| COC(=O)NC1C(C)OC(OC2C/C=C(/C)C3C=CC4C(OC5CC(OC6CCC(OC7CC(O)C(OC8CCC(O)C(C)O8)C(C)O7)C(C)O6)C(OC(C)=O)C(C)O5)C(C)CC(C)C4C3(C)/C(O)=C3/C(=O)OC4(CC(C=O)=CC(O)C4/C=C\2C)C3=O)CC1(C)[N+](=O)[O-] (stereo not given) | 5.07 µM |
